Molecular target: Cytochrome P450 17A1 (steroid 17-alpha-hydroxylase/17,20 lyase) (Rattus norvegicus, UniProt P11715)
Sequence (P11715 whole entry): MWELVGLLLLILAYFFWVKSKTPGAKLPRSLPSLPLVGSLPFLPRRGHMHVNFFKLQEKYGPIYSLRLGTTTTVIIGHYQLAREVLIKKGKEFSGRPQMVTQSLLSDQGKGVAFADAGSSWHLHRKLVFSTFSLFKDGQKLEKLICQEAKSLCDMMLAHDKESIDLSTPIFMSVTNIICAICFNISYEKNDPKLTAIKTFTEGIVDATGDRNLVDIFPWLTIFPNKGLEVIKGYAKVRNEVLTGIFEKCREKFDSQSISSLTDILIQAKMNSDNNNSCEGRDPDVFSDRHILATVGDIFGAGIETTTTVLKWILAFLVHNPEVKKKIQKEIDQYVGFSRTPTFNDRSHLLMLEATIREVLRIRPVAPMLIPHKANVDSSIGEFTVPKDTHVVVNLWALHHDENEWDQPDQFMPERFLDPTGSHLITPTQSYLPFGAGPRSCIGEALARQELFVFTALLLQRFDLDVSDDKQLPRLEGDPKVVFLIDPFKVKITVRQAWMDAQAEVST
Experiment: Inhibition Cytochrome P450 17A1 of rat testicular microsomes at 2.5 uM with 25 uM progesterone
Settings: probe progesterone (25 uM)
QUANTITY KIND: inhibition at 2.5 µM (%)
Report only the number, with the unit % understood.

In the examples that follow, each entry is paired with its recorded inhibition at 2.5 µM.
CCn1ccc2cc(Br)cc(C(c3ccc(F)cc3)n3ccnc3)c21 (centres undefined)
9
CCn1ccc2cccc(C(c3cccc(Cl)c3)n3ccnc3)c21 (centres undefined)
43
CCn1ccc2cccc(C(c3ccc(F)cc3)n3ccnc3)c21 (centres undefined)
37
CCN1CCc2cc(Br)cc(C(c3ccc(F)cc3)n3ccnc3)c21 (centres undefined)
8
CCN1CCc2cccc(C(c3ccc(F)cc3)n3ccnc3)c21 (centres undefined)
37

Challenge: Report inhibition at 2.5 µM for CCn1ccc2cccc(C(c3ccc(Br)cc3)n3ccnc3)c21 (centres undefined) please.
Response given: 29

Challenge: Report inhibition at 2.5 µM for CCn1ccc2cccc(C(c3ccc(Cl)cc3)n3ccnc3)c21 (centres undefined) please.
Response given: 29

Challenge: Report inhibition at 2.5 µM for CCN1CCc2cccc(C(c3cccc(Cl)c3)n3ccnc3)c21 (centres undefined) please.
Response given: 38

Challenge: Report inhibition at 2.5 µM for CCN1CCc2cc(Cl)cc(C(c3ccc(F)cc3)n3ccnc3)c21 (centres undefined) please.
Response given: 23
